Reference for the values: ChEMBL document CHEMBL1136741

System: Staphylococcus epidermidis
protocol: Antibacterial activity against Staphylococcus epidermis 533 strain
Assay type: functional
assay endpoint: MIC (µg/mL)
Answers are plain numbers, in µg/mL.

structure string	experimental target	measurement unit	numeric value
CCCCCCCCCCNC(=O)[C@H]1NC(=O)[C@H]2NC(=O)[C@H](NC(=O)[C@@H]3NC(=O)[C@H](CC(N)=O)NC(=O)[C@H](N)[C@H](O)c4ccc(c(Cl)c4)Oc4cc3cc(c4O[C@@H]3O[C@H](CO)[C@@H](O)[C@H](O)[C@H]3O[C@H]3C[C@](C)(N)[C@@H](O)[C@H](C)O3)Oc3ccc(cc3)[C@H]2O[C@H]2C[C@](C)(N)[C@@H](O)[C@H](C)O2)c2ccc(O)c(c2)-c2c(O)cc(O)cc21	Staphylococcus epidermidis	µg/mL	0.5
C[C@@H]1O[C@@H](O[C@H]2[C@H](Oc3c4cc5cc3Oc3ccc(cc3Cl)[C@@H](O)[C@@H](N)C(=O)N[C@@H](CC(N)=O)C(=O)N[C@H]5C(=O)N[C@H]3C(=O)N[C@H](C(=O)N[C@H](C(=O)O)c5cc(O)cc(O)c5-c5cc3ccc5O)[C@H](O[C@H]3C[C@](C)(N)[C@@H](O)[C@H](C)O3)c3ccc(cc3)O4)O[C@H](CO)[C@@H](O)[C@@H]2O)C[C@](C)(N)[C@H]1O	Staphylococcus epidermidis	µg/mL	16

Prompt: Given the molecule CCCCCCCCCCNC(=O)[C@H]1NC(=O)[C@H]2NC(=O)[C@H](NC(=O)[C@@H]3NC(=O)[C@H](CC(N)=O)NC(=O)[C@H](NC(=O)[C@@H](CC(C)C)NC)[C@H](O)c4ccc(c(Cl)c4)Oc4cc3cc(c4O)Oc3ccc(cc3)[C@H]2O)c2ccc(O)c(c2)-c2c(O)cc(O)cc21 , write its reported MIC.
Completion: 4
